Target: Aldo-keto reductase family 1 member C4 (Homo sapiens, UniProt P17516)
Sequence (P17516 whole entry): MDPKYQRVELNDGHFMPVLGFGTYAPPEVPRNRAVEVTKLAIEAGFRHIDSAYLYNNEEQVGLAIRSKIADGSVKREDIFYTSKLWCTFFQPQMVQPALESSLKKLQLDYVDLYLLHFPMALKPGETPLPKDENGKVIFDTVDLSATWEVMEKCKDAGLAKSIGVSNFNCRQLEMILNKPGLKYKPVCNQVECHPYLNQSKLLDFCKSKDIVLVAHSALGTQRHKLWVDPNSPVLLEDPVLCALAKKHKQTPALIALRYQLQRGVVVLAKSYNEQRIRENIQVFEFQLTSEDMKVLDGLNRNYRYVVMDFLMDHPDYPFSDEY
Assay: Inhibition of human AKR1C4 using S-tetralol as substrate in presence of NADP by fluorescence method
MEASURED_PARAMETER: IC50 (µM)
Your answer should be a plain number; it is taken to be in µM.

I am curious: what IC50 value has been reported for `O=C(O)c1cccc(Nc2ccc([N+](=O)[O-])c3ccccc23)c1` ? 30.6

I am curious: what IC50 value has been reported for `O=C(O)c1cccc(Nc2ccc([N+](=O)[O-])c3c([N+](=O)[O-])cccc23)c1` ? 5.34

I am curious: what IC50 value has been reported for `CC(=O)c1ccc(Nc2cccc(C(=O)O)c2)c2ccccc12` ? 17.7
